test: Inhibition of citreated human platelet (h-PRP) aggregation induced by 4 ug/mL collagen
measured-parameter: pIC50
The read-out pIC50 is expressed as -log10 of concentration in moles per litre.

>  <structure-smiles-string>
N=C(N)c1ccc(N2CCC3(CCN(C(=O)COCC(=O)O)CC3)C2=O)cc1

>  <pIC50>
6.41

$$$$

Here's the next entry for you.
Req: Reported pIC50, compound N=C(N)c1ccc(N2CCC3(CCN(C(=O)CCCC(=O)O)CC3)C2=O)cc1 : ____
Resp: 6.76

###

assay: Inhibition of citreated human (h-PRP) platelet aggregation induced by 5 uM TRAP6
measured-parameter: IC50

>  <compound>
N=C(N)c1ccc(N2CCC3(CCN(C(=O)NCCC(=O)O)CC3)C2=O)cc1

>  <measured-parameter>
IC50

>  <recorded-value>
120 nM

$$$$
>  <compound>
N=C(N)c1ccc(N2CCC3(CCN(C(=O)COCC(=O)O)CC3)C2=O)cc1

>  <measured-parameter>
IC50

>  <recorded-value>
273 nM

$$$$

Req: Reported IC50, compound N=C(N)c1ccc(N2CCC3(CCN(C(=O)CCCC(=O)O)CC3)C2=O)cc1 : ____
Resp: 123 nM

Req: Reported IC50, compound CCOC(=O)CCNC(=O)N[C@H]1CCN(c2ccc(C(=N)N)cc2)C1=O [SC-57099B] : ____
Resp: 166 nM

Req: Reported IC50, compound CCOC(=O)COC1CCN(C(=O)[C@H](C)NC(=O)c2ccc(C(=N)NO)cc2)CC1 : ____
Resp: 147 nM
